All values here come from the supplement of paper PMC10567573.

B1: FBXO3 (parent)
chain: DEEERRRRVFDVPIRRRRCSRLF

- Variants of: B1
- Method: protein stability index of a GFP-peptide fusion (GPS, HEK-293T) (PSI 1-6); higher = more stable;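 further: lentivirally expressed fusions sorted by FACS into six bins by GFP to DsRed ratio, PSI derived from sequencing read proportions per bin multiplied by bin number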
- Particulars: c terminus: native
Reported protein stability index values follow for various variants
The answer should be a number; do not append a unit.

Known protein stability index results, listed for orientation:
S20H : 2.68
I14F : 2.2
V12F : 2.6
R17V : 2.06
R21P : 2.72

# input for lookup
**Query** Consider the variant E3Q and give its measured protein stability index.
**Result** 2.57
